Tested system: T1, PSMA Fab (biotinylated (site not stated))
T1 construct: also called Anti-PSMA Fab; 006 PSMA Fab
Protocol text: clonal phage ELISA; biotinylated PSMA Fab on neutravidin plate, wells pre-incubated with PSMA antigen as competitor, anti-M13-HRP detection
Where no end group is shown, it is not given here.
Measured endpoint: Phage binding ELISA signal, Anti-PSMA Fab

>  <Binder>
PPKWCIPAWMCAGM (cysteine pairing not given here; also: displayed on bacteriophage as fusion to pIII) [Phage-2666]

>  <Measurement>
0.0794

$$$$
>  <Binder>
IAKWCTPPWMCADN (cysteine pairing not given here; also: displayed on bacteriophage as fusion to pIII) [Phage-2676]

>  <Measurement>
0.079

$$$$
>  <Binder>
EEKWCIPYWMCEAV [Phage-2669]

>  <Measurement>
0.0691

$$$$
>  <Binder>
ITKLCTPPWMCMDV [Phage-2668]

>  <Measurement>
0.0571

$$$$
